B1: library; a variant is named by its letters at N, in order (parent)
chain: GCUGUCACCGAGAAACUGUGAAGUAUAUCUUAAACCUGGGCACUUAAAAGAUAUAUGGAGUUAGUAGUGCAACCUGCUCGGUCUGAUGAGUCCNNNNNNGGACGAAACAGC

Variants of: B1
MEASUREMENT DESCRIPTION: normalized RNA/DNA level with ligand (relative to sTRSVctl = 100) (log10 (% of sTRSVctl)); HEK293T; ligand: cyclic di-GMP (c-di-GMP-II aptamer); ligand concentration (+) RNA-Seq: 1 mM; higher = less ribozyme self-cleavage, higher mRNA level
EXPERIMENTAL CONTEXT: reporter: mCherry (pCS4076), ligand present: yes
Field: normalized RNA/DNA level with ligand (log10). Provide a value for each of the variants that follow.
Numbers only.

UACAUA 1.86
UUUUUU 1.88
CAUAUC 1.79
CCGCCG 1.82
UCGGAG 1.72

Your task in this section: give normalized RNA/DNA level with ligand (log10) for each listed record.
1. GAAGGC
2. GGGUAC
3. UAUACG

1. 1.79
2. 1.8
3. 1.85

Your task in this section: give normalized RNA/DNA level with ligand (log10) for each listed record.
1. CCGAGC
2. AAUCAG
3. UCCGUC
4. AUUAAC
5. UGGUUG
6. UGACGA

1: 1.88; 2: 1.76; 3: 1.9; 4: 1.76; 5: 1.83; 6: 1.78

Your task in this section: give normalized RNA/DNA level with ligand (log10) for each listed record.
1. UAAAGG
2. AGUGCC

1.78
1.92

Your task in this section: give normalized RNA/DNA level with ligand (log10) for each listed record.
1. CCUAUU
2. CAAUGG
3. GCUCCC

1: 1.71; 2: 1.8; 3: 1.83
